# MEASURED_ON: CYP2C9 (Homo sapiens, UniProt P11712)
# Construct: purchased Invitrogen 2859; host or cells: insect cells infected with baculovirus (microsomes)
# Sequence (P11712 whole entry): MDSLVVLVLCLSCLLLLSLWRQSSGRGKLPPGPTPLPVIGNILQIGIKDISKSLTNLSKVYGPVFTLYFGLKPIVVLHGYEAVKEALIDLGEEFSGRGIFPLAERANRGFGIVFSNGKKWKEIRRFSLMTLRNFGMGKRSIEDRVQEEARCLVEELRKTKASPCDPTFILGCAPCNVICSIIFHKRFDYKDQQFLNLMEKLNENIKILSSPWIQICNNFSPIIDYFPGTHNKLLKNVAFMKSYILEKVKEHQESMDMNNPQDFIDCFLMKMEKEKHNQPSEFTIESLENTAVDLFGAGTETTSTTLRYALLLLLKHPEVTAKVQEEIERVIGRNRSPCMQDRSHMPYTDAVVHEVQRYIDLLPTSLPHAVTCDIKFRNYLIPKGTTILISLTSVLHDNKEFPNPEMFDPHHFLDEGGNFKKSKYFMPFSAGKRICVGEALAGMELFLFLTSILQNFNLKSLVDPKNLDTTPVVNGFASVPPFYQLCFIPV
# ASSAY_PROTOCOL: Biological Test Example 9: CYP2C9 inhibition (Invitrogen kit, fluorogenic OOMR)
# Format: in vitro ADME
pIC50: −log10 of the molar value.
PROPERTY_MEASURED: pIC50

compound=Cc1cc(-c2ccc([C@H](C)N3CC[C@](CCO)(c4ccc(F)cc4)OC3=O)cc2)ccn1 property_measured=pIC50 result_qualifier== recorded_result=5.04
compound=C[C@@H](c1ccc(-c2cncc(F)c2)cc1)N1CC[C@](CCCO)(c2ccccc2)OC1=O property_measured=pIC50 result_qualifier== recorded_result=5.08
compound=Cc1nnc(CC[C@]2(c3ccccc3)CCN([C@@H](C)c3ccc(-c4ccc(C#N)cn4)cc3)C(=O)O2)s1 property_measured=pIC50 result_qualifier== recorded_result=5.21
compound=C[C@@H](c1ccc(-c2ccc(C(C)(C)O)nn2)cc1)N1CC[C@](CC(C)(C)O)(c2ccccc2)OC1=O property_measured=pIC50 result_qualifier== recorded_result=5.28
compound=C[C@@H](c1ccc(-c2cccnc2)cc1)N1CC[C@](CCO)(c2ccc(F)cc2)OC1=O property_measured=pIC50 result_qualifier== recorded_result=5.07
compound=Cc1cc(-c2ccc([C@H](C)N3CC[C@](CC(C)(C)O)(c4ccccc4)OC3=O)cc2)cc(C)n1 property_measured=pIC50 result_qualifier== recorded_result=5.00
compound=C[C@@H](c1ccc(-c2cccnc2)cc1)N1CC[C@](CCO)(c2ccccc2)OC1=O property_measured=pIC50 result_qualifier== recorded_result=5.29
compound=Cc1cc(-c2ccc([C@H](C)N3CC[C@](CC(C)(C)O)(c4ccccc4)OC3=O)cc2)cc(C)[n+]1[O-] property_measured=pIC50 result_qualifier== recorded_result=5.32
compound=C[C@@H](c1ccc(-c2ccnc(N)c2)cc1)N1CC[C@](CCCO)(c2ccccc2)OC1=O property_measured=pIC50 result_qualifier== recorded_result=5.37
compound=Cc1cccc(-c2ccc([C@H](C)N3CC[C@](CCCO)(c4ccc(F)cc4)OC3=O)cc2)n1 property_measured=pIC50 result_qualifier== recorded_result=4.96
compound=COc1cc(-c2ccc([C@H](C)N3CC[C@](CCCO)(c4ccc(F)cc4)OC3=O)cc2)ccn1 property_measured=pIC50 result_qualifier== recorded_result=5.34
compound=C[C@@H](c1ccc(-c2ccncn2)cc1)N1CC[C@](CC(C)(C)O)(c2ccccc2)OC1=O property_measured=pIC50 result_qualifier== recorded_result=4.95
compound=C[C@@H](c1ccc(-c2cnc(-n3ccnc3)nc2)cc1)N1CC[C@](CC(C)(C)O)(c2ccccc2)OC1=O property_measured=pIC50 result_qualifier== recorded_result=4.70
compound=Cc1nc(C)c(-c2ccc([C@H](C)N3CC[C@](CCCO)(c4ccc(F)cc4)OC3=O)cc2)s1 property_measured=pIC50 result_qualifier== recorded_result=5.41
compound=Cc1cc(-c2ccc([C@H](C)N3CC[C@](CCN4CCCS4(=O)=O)(c4ccccc4)OC3=O)cc2)ccn1 property_measured=pIC50 result_qualifier== recorded_result=5.60
compound=Cc1cc(-c2ccc([C@H](C)N3CC[C@](CC4(O)CC4)(c4ccc(F)cc4)OC3=O)cc2)ccn1 property_measured=pIC50 result_qualifier== recorded_result=5.36
compound=COc1ccc(-c2ccc([C@H](C)N3CC[C@](CCCO)(c4ccc(F)cc4)OC3=O)cc2)cn1 property_measured=pIC50 result_qualifier== recorded_result=5.40
compound="Cc1cc(-c2ccc([C@H](C)N3CC[C@](C)(c4ccc(F)cc4)OC3=O)cc2)ccn1 (single isomer, unassigned)" property_measured=pIC50 result_qualifier== recorded_result=4.76
compound=Cc1ccc(-c2ccc([C@H](C)N3CC[C@](CCCO)(c4ccc(F)cc4)OC3=O)cc2)c(C)n1 property_measured=pIC50 result_qualifier=< recorded_result=4.52
compound=C[C@@H](c1ccc(-c2ccn(C)n2)cc1)N1CC[C@](CCCO)(c2ccccc2)OC1=O property_measured=pIC50 result_qualifier== recorded_result=5.35
compound=C[C@@H](c1ccc(-c2cncc(Cl)c2)cc1)N1CC[C@](CCCO)(c2ccc(F)cc2)OC1=O property_measured=pIC50 result_qualifier== recorded_result=5.64
compound=COc1ccc(-c2ccc([C@H](C)N3CC[C@](CC(C)(C)O)(c4ccccc4)OC3=O)cc2)cn1 property_measured=pIC50 result_qualifier== recorded_result=5.10
compound=C[C@@H](c1ccc(-c2cccnc2)cc1)N1CC[C@](CCCO)(c2ccccc2)OC1=O property_measured=pIC50 result_qualifier== recorded_result=5.28
compound=Cc1cc(-c2ccc([C@H](C)N3CC[C@](CCCO)(c4ccccc4)OC3=O)cc2)cc(C)n1 property_measured=pIC50 result_qualifier=< recorded_result=4.52
compound=C=CC[C@]1(c2ccc(F)cc2)CCN([C@@H](C)c2ccc(-c3cncc(F)c3)cc2)C(=O)O1 property_measured=pIC50 result_qualifier== recorded_result=6.15
compound=C[C@@H](c1ccc(-c2cccnn2)cc1)N1CC[C@](CCCO)(c2ccc(F)cc2)OC1=O property_measured=pIC50 result_qualifier== recorded_result=4.74
compound=C[C@@H](c1ccc(-c2ccc(C(N)=O)cn2)cc1)N1CC[C@](CCCO)(c2ccccc2)OC1=O property_measured=pIC50 result_qualifier== recorded_result=4.69
compound=Cc1cc(-c2ccc([C@H](C)N3CC[C@](CCCO)(c4ccccc4)OC3=O)cc2)cc(C)[n+]1[O-] property_measured=pIC50 result_qualifier== recorded_result=5.33
compound=C[C@@H](c1ccc(-c2ccncc2)cc1)N1CC[C@](CCCO)(c2ccccc2)OC1=O property_measured=pIC50 result_qualifier== recorded_result=5.66
compound=C[C@@H](c1ccc(-c2ccncn2)cc1)N1CC[C@](CCCO)(c2ccc(F)cc2)OC1=O property_measured=pIC50 result_qualifier== recorded_result=5.48

----------
# MEASURED_ON: 11β-HSD1 (Homo sapiens, UniProt P28845)
# Sequence (P28845 whole entry): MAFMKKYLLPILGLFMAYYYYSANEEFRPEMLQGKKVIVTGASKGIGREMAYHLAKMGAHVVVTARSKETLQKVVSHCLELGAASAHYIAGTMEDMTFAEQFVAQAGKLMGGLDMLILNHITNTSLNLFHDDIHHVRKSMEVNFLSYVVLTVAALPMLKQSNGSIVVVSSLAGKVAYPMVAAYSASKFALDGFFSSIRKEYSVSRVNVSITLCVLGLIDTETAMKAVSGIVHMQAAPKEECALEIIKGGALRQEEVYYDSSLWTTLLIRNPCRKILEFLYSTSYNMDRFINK
# ASSAY_PROTOCOL: biochemical
# CONDITION_INFO: IC50 Range, Biological Test Example 1
The reader will find reported IC50 values listed item by item below.
PROPERTY_MEASURED: IC50

compound_structure_string=C=CC[C@]1(c2ccc(F)cc2)CCN([C@@H](C)c2ccc(-c3cncc(F)c3)cc2)C(=O)O1 recorded_result="< 100 nM"
compound_structure_string=C[C@@H](c1ccc(-c2ccncc2)cc1)N1CC[C@](CCC(N)=O)(c2ccc(F)cc2)OC1=O recorded_result="< 100 nM"
compound_structure_string=C[C@@H](c1ccc(-c2nc(C(=O)NC3CC3)cs2)cc1)N1CC[C@](CC(C)(C)O)(c2ccccc2)OC1=O recorded_result="< 100 nM"

----------
The reader will find reported IC50 values listed item by item below.
# MEASURED_ON: CYP2C9 (Homo sapiens, UniProt P11712)
# Construct: purchased Invitrogen 2859; host or cells: insect cells infected with baculovirus (microsomes)
# ASSAY_PROTOCOL: Biological Test Example 9: CYP2C9 inhibition (Invitrogen kit, fluorogenic OOMR)
# Type: in vitro ADME
PROPERTY_MEASURED: IC50 (µM)

compound="Cc1cc(-c2ccc([C@H](C)N3CC[C@](CC(C)(C)O)(c4ccccc4)OC3=O)cc2)ccn1 [EXAMPLE 97]" property_measured=IC50 recorded_result=9.7
compound="C[C@@H](c1ccc(-c2cc[nH]n2)cc1)N1CC[C@](CCCO)(c2ccccc2)OC1=O [EXAMPLE 45]" property_measured=IC50 recorded_result=9
compound="Cc1ccc(-c2ccc([C@H](C)N3CC[C@](CCc4nnc(C)o4)(c4ccccc4)OC3=O)cc2)nn1 [EXAMPLE 12]" property_measured=IC50 recorded_result=4
compound="C[C@@H](c1ccc(-c2ccccn2)cc1)N1CC[C@](CCCNS(C)(=O)=O)(c2ccc(F)cc2)OC1=O [EXAMPLE 61]" property_measured=IC50 recorded_result=9.9

----------
Reported pIC50 values, CYP3A4 (Homo sapiens, UniProt P08684).
pIC50: −log10 of the molar value.
PROPERTY_MEASURED: pIC50

compound="CCNC(=O)c1ccc(-c2ccc([C@H](C)N3CC[C@](CC(C)(C)O)(c4ccccc4)OC3=O)cc2)cn1 [EXAMPLE 168]" result_qualifier== recorded_result=4.77
compound="Cc1cc(-c2ccc([C@H](C)N3CC[C@](CC(C)(C)O)(c4ccc(F)cc4)OC3=O)cc2)cc(C)n1 [EXAMPLE 144]" result_qualifier== recorded_result=4.92
compound="C[C@@H](c1ccc(-c2ccc(S(C)(=O)=O)nc2)cc1)N1CC[C@](CC(C)(C)O)(c2ccccc2)OC1=O [EXAMPLE 183]" result_qualifier=< recorded_result=4.30
compound="C[C@@H](c1ccc(-c2ncc(F)cn2)cc1)N1CC[C@](CC(C)(C)O)(c2ccccc2)OC1=O [EXAMPLE 13]" result_qualifier=< recorded_result=5.00
compound="C[C@@H](c1ccc(-c2ccc(F)cn2)cc1)N1CC[C@](CC(C)(C)O)(c2ccccc2)OC1=O [EXAMPLE 136]" result_qualifier== recorded_result=4.62
compound="Cc1cc(-c2ccc([C@H](C)N3CC[C@](CCC(N)=O)(c4ccccc4)OC3=O)cc2)ccn1 [EXAMPLE 98]" result_qualifier== recorded_result=4.37
compound="C[C@@H](c1ccc(-c2nnc(C(F)(F)F)s2)cc1)N1CC[C@](CC(C)(C)O)(c2ccccc2)OC1=O [EXAMPLE 179]" result_qualifier== recorded_result=4.68
compound="C[C@@H](c1ccc(-c2ccncn2)cc1)N1CC[C@](CC(C)(C)O)(c2ccccc2)OC1=O [EXAMPLE 131]" result_qualifier== recorded_result=5.25
compound="C[C@@H](c1ccc(-c2cnn(C)c2)cc1)N1CC[C@](CC(C)(C)O)(c2ccccc2)OC1=O [EXAMPLE 178]" result_qualifier=< recorded_result=4.30
compound="C[C@@H](c1ccc(-c2cnc(C(=O)NC3CC3)nc2)cc1)N1CC[C@](CC(C)(C)O)(c2ccccc2)OC1=O [EXAMPLE 15]" result_qualifier=< recorded_result=4.30
compound="Cc1nc(-c2ccc([C@H](C)N3CC[C@](CC(C)(C)O)(c4ccccc4)OC3=O)cc2)ccc1C#N [EXAMPLE 1]" result_qualifier== recorded_result=4.78
compound="Cc1nnc(-c2ccc([C@H](C)N3CC[C@](CC(C)(C)O)(c4ccccc4)OC3=O)cc2)s1 [EXAMPLE 172]" result_qualifier=< recorded_result=4.30
compound="C[C@@H](c1ccc(-c2cccc([S+](C)[O-])n2)cc1)N1CC[C@](CC(C)(C)O)(c2ccccc2)OC1=O (stereo partly shown) [EXAMPLE 191]" result_qualifier== recorded_result=4.44
compound="COc1ccc(-c2ccc([C@H](C)N3CC[C@](CC(C)(C)O)(c4ccccc4)OC3=O)cc2)cn1 [EXAMPLE 93]" result_qualifier== recorded_result=4.94
compound="Cc1nc(C)c(-c2ccc([C@H](C)N3CC[C@](CC(C)(C)O)(c4ccccc4)OC3=O)cc2)s1 [EXAMPLE 176]" result_qualifier== recorded_result=5.12
compound="C[C@@H](c1ccc(-c2ccnc(S(C)(=O)=O)c2)cc1)N1CC[C@](CC(C)(C)O)(c2ccccc2)OC1=O [EXAMPLE 187]" result_qualifier=< recorded_result=4.30
compound="Cc1ccc(-c2ccc([C@H](C)N3CC[C@](CC(C)(C)C#N)(c4ccccc4)OC3=O)cc2)nn1 [EXAMPLE 166]" result_qualifier== recorded_result=4.68
compound="C[C@@H](c1ccc(-c2ccc(C(=O)N(C)C)cn2)cc1)N1CC[C@](CC(C)(C)O)(c2ccccc2)OC1=O [EXAMPLE 156]" result_qualifier=< recorded_result=4.30
compound="C[C@@H](c1ccc(-c2nc(C(=O)NC(C)(C)C)cs2)cc1)N1CC[C@](CC(C)(C)O)(c2ccccc2)OC1=O [EXAMPLE 22]" result_qualifier== recorded_result=5.28
compound="COc1ccc(-c2ccc([C@H](C)N3CC[C@](CCC(N)=O)(c4ccccc4)OC3=O)cc2)cn1 [EXAMPLE 52]" result_qualifier=< recorded_result=4.30
compound="C[C@@H](c1ccc(-c2ccc(C(=O)NC3CC3)nn2)cc1)N1CC[C@](CC(C)(C)O)(c2ccccc2)OC1=O [EXAMPLE 10]" result_qualifier== recorded_result=4.46
compound="C[C@@H](c1ccc(-c2ccc(C(=O)N(C)C)nc2)cc1)N1CC[C@](CC(C)(C)O)(c2ccccc2)OC1=O [EXAMPLE 170]" result_qualifier== recorded_result=4.34
compound="C[C@@H](c1ccc(-c2cnccn2)cc1)N1CC[C@](CC(C)(C)O)(c2ccccc2)OC1=O [EXAMPLE 130]" result_qualifier== recorded_result=4.93
compound="COC[C@]1(c2ccccc2)CCN([C@@H](C)c2ccc(-c3ccc(C)nn3)cc2)C(=O)O1 [EXAMPLE 167]" result_qualifier== recorded_result=4.33
compound="C[C@@H](c1ccc(-c2ccc(S(C)(=O)=O)cn2)cc1)N1CC[C@](CC(C)(C)O)(c2ccccc2)OC1=O [EXAMPLE 186]" result_qualifier=< recorded_result=4.30
compound="C[C@@H](c1ccc(-c2ccc(C(=O)NC(C)(C)C)cn2)cc1)N1CC[C@](CC(C)(C)C#N)(c2ccccc2)OC1=O [EXAMPLE 3]" result_qualifier== recorded_result=5.68
compound="Cc1cc(-c2ccc([C@H](C)N3CC[C@](CC(C)(C)O)(c4ccccc4)OC3=O)cc2)cc(C)n1 [EXAMPLE 139]" result_qualifier=< recorded_result=4.30
compound="C[C@@H](c1ccc(-c2cncc(S(C)(=O)=O)c2)cc1)N1CC[C@](CC(C)(C)O)(c2ccccc2)OC1=O [EXAMPLE 188]" result_qualifier== recorded_result=4.37
